# target: Neuropeptide Y receptor type 2 (Homo sapiens)
# Sequence (P49146 whole entry): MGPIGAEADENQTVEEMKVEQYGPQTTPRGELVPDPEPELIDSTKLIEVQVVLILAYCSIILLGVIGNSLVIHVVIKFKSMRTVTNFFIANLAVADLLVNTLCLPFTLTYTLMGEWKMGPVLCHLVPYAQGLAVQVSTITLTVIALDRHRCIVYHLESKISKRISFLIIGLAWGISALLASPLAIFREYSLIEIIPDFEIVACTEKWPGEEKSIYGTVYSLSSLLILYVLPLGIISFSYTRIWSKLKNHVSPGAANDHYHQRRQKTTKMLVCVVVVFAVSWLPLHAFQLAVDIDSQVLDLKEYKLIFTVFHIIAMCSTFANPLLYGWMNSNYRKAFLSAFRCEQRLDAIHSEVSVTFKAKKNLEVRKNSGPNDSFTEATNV
# measurement-notes: Antagonist activity at neuropeptide Y receptor Y2
# Type: functional
For each of the compounds below, state its pIC50.
Reminder that pIC50 means the negative base-10 logarithm of the concentration expressed in mol/L.

[in] Please provide the recorded pIC50 for OC(c1ccccc1)(c1ccccc1)C1CCN(C(=S)Nc2ccc(N3CCCC3)cc2)CC1 , tested on Neuropeptide Y receptor type 2 (Homo sapiens).
[out] 5.92

[in] For the record CCOc1ccc(NC(=S)N2CCN(C(c3ccccc3)c3ccccc3)CC2)cc1 , what value of pIC50 is listed for Neuropeptide Y receptor type 2 (Homo sapiens)?
[out] 6.43

[in] Recall the recorded pIC50 for Cc1ccc(S(=O)(=O)C(c2ccccc2)c2c(C)noc2C)cc1 (centres undefined) with Neuropeptide Y receptor type 2 (Homo sapiens) and state it.
[out] 5.36

[in] Report pIC50 for CCN(CC)S(=O)(=O)c1ccc(OC(=O)N2CCC(C(O)(c3ccccc3)c3ccccc3)CC2)cc1 tested on Neuropeptide Y receptor type 2 (Homo sapiens).
[out] 7.92

[in] Missing value: pIC50, Neuropeptide Y receptor type 2 (Homo sapiens), entry CCN(CC)S(=O)(=O)c1ccc(NC(=S)N2CCC(C(O)(c3ccccc3)c3ccccc3)CC2)cc1 . Fill in?
[out] 6.87

[in] Given the entry CCN(CC)C(=O)c1ccc(NC(=S)N2CCC(C(O)(c3ccccc3)c3ccccc3)CC2)cc1 , what pIC50 was observed with Neuropeptide Y receptor type 2 (Homo sapiens)?
[out] 7.11

[in] Query for Neuropeptide Y receptor type 2 (Homo sapiens): what pIC50 does the record show for CN(C)S(=O)(=O)c1ccc(NC(=S)N2CCN(C(c3ccccc3)c3ccccc3)CC2)cc1 ?
[out] 6.32

[in] Find the measured pIC50: item CCN(CC)c1ccc(NC(=S)N2CCC(C(O)(c3ccccc3)c3ccccc3)CC2)cc1 , target or system Neuropeptide Y receptor type 2 (Homo sapiens).
[out] 7.14

[in] What measured pIC50 is associated with CS(=O)(=O)Nc1ccc(OC(=O)N2CCC(C(O)(c3ccccc3)c3ccccc3)CC2)cc1 on Neuropeptide Y receptor type 2 (Homo sapiens)?
[out] 6.40

[in] Please state recorded pIC50 (tested on Neuropeptide Y receptor type 2 (Homo sapiens)) of OC(c1ccccc1)(c1ccccc1)C1CCN(C(=S)Nc2ccc(OC(F)(F)F)cc2)CC1
[out] 5.98

[in] Record CNC(=O)c1ccc(NC(=S)N2CCC(C(O)(c3ccccc3)c3ccccc3)CC2)cc1 : what is its pIC50 with Neuropeptide Y receptor type 2 (Homo sapiens)?
[out] 5.85

[in] Form entry - test system: Neuropeptide Y receptor type 2 (Homo sapiens); read-out: pIC50; compound: CCN(CC)C(=O)c1ccc(OC(=O)N2CCC(C(O)(c3ccccc3)c3ccccc3)CC2)cc1
[out] 6.66

[in] For Neuropeptide Y receptor type 2 (Homo sapiens), provide pIC50 of CN(C)S(=O)(=O)c1ccc(NC(=S)N2CCC(C(O)(c3ccccc3)c3ccc(F)cc3)CC2)cc1 (centres undefined) please.
[out] 7.05

[in] Which pIC50 is reported with Neuropeptide Y receptor type 2 (Homo sapiens) for this entry: CN(C)S(=O)(=O)c1ccc(NC(=S)N2CCC(C(O)(c3ccccc3)c3ccsc3)CC2)cc1 (centres undefined) ?
[out] 6.61

[in] Can you look up pIC50 on Neuropeptide Y receptor type 2 (Homo sapiens) for CN(C)c1ccc(NC(=S)N2CCC(C(O)(c3ccccc3)c3ccccc3)CC2)cc1 ?
[out] 6.21

[in] Write down the reported pIC50 of CCCc1ccc(NC(=S)N2CCC(C(O)(c3ccccc3)c3ccccc3)CC2)cc1 , test system: Neuropeptide Y receptor type 2 (Homo sapiens).
[out] 6.11

[in] What pIC50 appears in the records for this compound with Neuropeptide Y receptor type 2 (Homo sapiens)? CC(C)Oc1ccc(NC(=S)N2CCC(C(O)(c3ccccc3)c3ccccc3)CC2)cc1C#N
[out] 6.05

[in] Kindly state the measured pIC50 obtained for CC(C)Oc1ccc(NC(=S)N2CCC(C(O)(c3ccccc3)c3ccccc3)CC2)cc1 with Neuropeptide Y receptor type 2 (Homo sapiens).
[out] 5.75

[in] Recorded pIC50 for CCOc1ccc(NC(=S)N2CCC(C(O)(c3ccccc3)c3ccccc3)CC2)cc1 with Neuropeptide Y receptor type 2 (Homo sapiens), please?
[out] 6.72

[in] // map OC(c1ccccc1)(c1ccccc1)C1CCN(C(=S)Nc2ccc(C(F)(F)F)cc2)CC1 to recorded pIC50 (system: Neuropeptide Y receptor type 2 (Homo sapiens))
[out] 6.75

[in] So what pIC50 did CCNC(=O)c1ccc(NC(=S)N2CCC(C(O)(c3ccccc3)c3ccccc3)CC2)cc1 get with Neuropeptide Y receptor type 2 (Homo sapiens)?
[out] 6.69

[in] Please provide the recorded pIC50 for Cc1ccc(C)c(NS(=O)(=O)c2cc(C(=O)Nc3ccccc3-c3ccccc3)ccc2C)c1 , tested on Neuropeptide Y receptor type 2 (Homo sapiens).
[out] 6.36

[in] State its pIC50 on Neuropeptide Y receptor type 2 (Homo sapiens): O=C(Oc1ccc(S(=O)(=O)N2CCCC2)cc1)N1CCC(C(O)(c2ccccc2)c2ccccc2)CC1
[out] 7.31

[in] Query for Neuropeptide Y receptor type 2 (Homo sapiens): what pIC50 does the record show for CN(C)S(=O)(=O)c1ccc(NC(=S)N2CCN(C3c4ccccc4NC(=O)c4ccccc43)CC2)cc1 (centres undefined) ?
[out] 7.17

[in] Form field - read-out: pIC50; system: Neuropeptide Y receptor type 2 (Homo sapiens); submitted item: CCOc1ccc(NC(=S)N2CCC(C(O)(c3ccccc3)c3ccccc3)CC2)cc1C#N
[out] 6.49

[in] Query for Neuropeptide Y receptor type 2 (Homo sapiens): what pIC50 does the record show for CN(C)S(=O)(=O)c1ccc(NC(=S)N2CCC(C(O)(c3ccccc3)c3ccccn3)CC2)cc1 (centres undefined) ?
[out] 7.01

[in] API: value(readout=pIC50, system=Neuropeptide Y receptor type 2 (Homo sapiens)) for record CCNS(=O)(=O)c1ccc(NC(=S)N2CCC(C(O)(c3ccccc3)c3ccccc3)CC2)cc1
[out] 6.92

[in] Param readout= pIC50; system= Neuropeptide Y receptor type 2 (Homo sapiens); entry= COc1ccc(OC(=O)N2CCC(C(O)(c3ccccc3)c3ccccc3)CC2)cc1 ; returns value.
[out] 5.57

[in] # query: pIC50 | item CN(C)C(=O)c1ccc(NC(=S)N2CCC(C(O)(c3ccccc3)c3ccccc3)CC2)cc1 | system: Neuropeptide Y receptor type 2 (Homo sapiens)
[out] 6.52

[in] Look up pIC50 with Neuropeptide Y receptor type 2 (Homo sapiens) for this compound: CCOC(=O)c1ccc(NC(=S)N2CCC(C(c3ccccc3)c3ccccc3)CC2)cc1
[out] 5.17

[in] Kindly state the measured pIC50 obtained for CN(C)S(=O)(=O)c1ccc(NC(=S)N2CCC(C(O)(c3ccccc3)c3ccccc3)CC2)cc1 with Neuropeptide Y receptor type 2 (Homo sapiens).
[out] 7.72

[in] Give the reported pIC50 for CCOc1ccc(NC(=S)N2CCC(C(O)(c3ccccc3)c3ccccc3)CC2)c(F)c1 (system: Neuropeptide Y receptor type 2 (Homo sapiens)).
[out] 5.87

[in] # get_value(readout= pIC50, system= Neuropeptide Y receptor type 2 (Homo sapiens)) for O=S(=O)(c1ccc(NC(=S)N2CCC(C(O)(c3ccccc3)c3ccccc3)CC2)cc1)N1CCCC1
[out] 6.93

Data origin, for the record: ChEMBL document CHEMBL2029318
